target: T1, recombinant human VEGF165 (human, UniProt P15692 27-191); experiment: Biacore SPR, VEGF immobilized, pH 5
T1 construct: mature; Isoform VEGF165 of the entry; also called hVEGF165; hVEGF
T1 sequence (P15692 other isoform, or with tags, fused parts or gaps): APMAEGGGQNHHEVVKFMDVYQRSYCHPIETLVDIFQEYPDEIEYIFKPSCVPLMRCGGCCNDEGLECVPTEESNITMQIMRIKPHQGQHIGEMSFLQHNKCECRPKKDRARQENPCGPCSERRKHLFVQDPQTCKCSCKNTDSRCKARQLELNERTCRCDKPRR
PROPERTY MEASURED: koff (s⁻¹)
# unit: s⁻¹ | format: bare number

Example entries and their recorded answers appear below.
BINDER | koff, s⁻¹
511min_max (scFv, also called Protein Nr; 904) scFv: EIVMTQSPSTLSASVGDRVIITCQASQSINIWCSWYQQKPGKAPKLLIYRASTLASGVPSRFSGSGSGAEFTLTISSLQPDDFATYYCQANYAYSAGYGAAFGQGTKLTVLGGGGGSGGGGSGGGGSGGGGSEVQLVESGGGLVQPGGSLRLSCTVSGFSLNTYYMNWVRQAPGKGLEWVGIIAPDDTTYYASWAKSRSTISRDTSKNTVYLQMNSLRAEDTAVYYCARSGDTTAWGADIWGQGTLVTVSS | 0.000102
578 wildtype C-His (scFv, not shown: small tags and cut ends, Rabbit wild type single chain) scFv: DVVMTQTPSSVSAAVGDTVTINCQASEIIHSWLAWYQQKPGQPPKLLIYLASTLASGVPSRFKGSGSGTQFTLTISDLECADAAIYYCQNVYLASTNGANFGGGTEVVVKGGGGSGGGGSGGGGSGGGGSQSVEESGGRLVTPGTPLTLTCTASGFSLTDYYYMTWVRLAPGKGLEYIGFIDPDDDPYYATWAKGRFTISRTSTTVNLKMTSPTTEDTATYFCAGGDHNSGWGLDIWGPGTLVTVSL | 0.000169

Answer with reported koff of 511-min (scFv, VL and VH tied by name; also called Protein Nr) scFv: EIVMTQSPSTLSASVGDRVIITCQASQSINIWCSWYQQKPGKAPKLLIYRASTLASGVPSRFSGSGSGAEFTLTISSLQPDDFATYYCQANYAYSAGYGAAFGQGTKLTVLGGGGGSGGGGSGGGGSGGGGSEVQLVESGGGLVQPGGSLRLSCAASGFSLNTYYMNWVRQAPGKGLEWVSIIAPDDTTYYASWAKSRFTISRDNSKNTLYLQMNSLRAEDTAVYYCAKSGDTTAWGADIWGQGTLVTVSS
0.00128

Taken from patent US20150274820A1.
